Measured values drawn from the supplement of paper PMC4862054 for this set.

System: CAL-85-1
Assay: normalised response (% of control), CellTox Green; higher = less cell death (100 = DMSO, 0 = benzethonium chloride kill control)
Conditions: incubation time: 72 h
Measured Endpoint: normalised response (%)

[[record]]
compound = "Nc1nc2[nH]cnc2c(=S)[nH]1 [Thioguanine] (1000 nM)"
measurement_target = "CAL-85-1"
measured_number = 112

[[record]]
compound = "Cn1cnc2c(F)c(Nc3ccc(Br)cc3Cl)c(C(=O)NOCCO)cc21 [Selumetinib] (100 nM)"
measurement_target = "CAL-85-1"
measured_number = 94.9

[[record]]
compound = "CC1=C2C[C@H]3[C@@H](CC=C4C[C@@H](O)CC[C@@]43C)[C@@H]2CC[C@]12O[C@@H]1C[C@H](C)CN[C@H]1[C@H]2C [Cyclopamine] (10000 nM)"
measurement_target = "CAL-85-1"
measured_number = 66.8

[[record]]
compound = "CC[C@@H]1C(=O)OC[C@@H]1Cc1cncn1C [Pilocarpine] (40000 nM)"
measurement_target = "CAL-85-1"
measured_number = 114

[[record]]
compound = "Cn1cnc2c(F)c(Nc3ccc(Br)cc3Cl)c(C(=O)NOCCO)cc21 [Selumetinib] (1000 nM)"
measurement_target = "CAL-85-1"
measured_number = 77.5

[[record]]
compound = "CC(=O)c1c(C)c2cnc(Nc3ccc(N4CCNCC4)cn3)nc2n(C2CCCC2)c1=O [Palbociclib] (1000 nM)"
measurement_target = "CAL-85-1"
measured_number = 114

[[record]]
compound = "CC(C)(C)c1cnc(CSc2cnc(NC(=O)C3CCNCC3)s2)o1 [SNS-032] (1000 nM)"
measurement_target = "CAL-85-1"
measured_number = 17.1

[[record]]
compound = "C[C@]12CC[C@@H]3c4ccc(OC(=O)N(CCCl)CCCl)cc4CC[C@H]3[C@@H]1CC[C@@H]2O [Estramustine] (100 nM)"
measurement_target = "CAL-85-1"
measured_number = 95.6

[[record]]
compound = "CC1(C)CNc2cc(NC(=O)c3cccnc3NCc3ccncc3)ccc21 [Motesanib] (1000 nM)"
measurement_target = "CAL-85-1"
measured_number = 91.8

[[record]]
compound = "Cc1sc2c(c1C)C(c1ccc(Cl)cc1)=N[C@@H](CC(=O)OC(C)(C)C)c1nnc(C)n1-2 [(+)JQ1] (100 nM)"
measurement_target = "CAL-85-1"
measured_number = 83.9

[[record]]
compound = "CC1(C)CCC(CN2CCN(c3ccc(C(=O)NS(=O)(=O)c4ccc(NCC5CCOCC5)c([N+](=O)[O-])c4)c(Oc4cnc5[nH]ccc5c4)c3)CC2)=C(c2ccc(Cl)cc2)C1 [ABT-199] (10000 nM)"
measurement_target = "CAL-85-1"
measured_number = 114

[[record]]
compound = "Cc1sc2c(c1C)C(c1ccc(Cl)cc1)=N[C@@H](CC(=O)OC(C)(C)C)c1nnc(C)n1-2 [(+)JQ1] (10000 nM)"
measurement_target = "CAL-85-1"
measured_number = 24

[[record]]
compound = "Nc1nc2[nH]cnc2c(=S)[nH]1 [Thioguanine] (10000 nM)"
measurement_target = "CAL-85-1"
measured_number = 97.4

[[record]]
compound = "CC1(C)CCC(CN2CCN(c3ccc(C(=O)NS(=O)(=O)c4ccc(NCC5CCOCC5)c([N+](=O)[O-])c4)c(Oc4cnc5[nH]ccc5c4)c3)CC2)=C(c2ccc(Cl)cc2)C1 [ABT-199] (1000 nM)"
measurement_target = "CAL-85-1"
measured_number = 102

[[record]]
compound = "CC(=O)N(O)CCCCCNC(=O)CCC(=O)N(O)CCCCCNC(=O)CCC(=O)N(O)CCCCCN [Deferoxamine] (100 nM)"
measurement_target = "CAL-85-1"
measured_number = 104

[[record]]
compound = "Oc1ncnc2[nH]ncc12 [Allopurinol] (1000 nM)"
measurement_target = "CAL-85-1"
measured_number = 99

[[record]]
compound = "C[C@]1(O)C[C@@H](c2nc(-c3ccc4ccc(-c5ccccc5)nc4c3)c3c(N)nccn32)C1 [Linsitinib] (100 nM)"
measurement_target = "CAL-85-1"
measured_number = 90.8

[[record]]
compound = "Oc1ncnc2[nH]ncc12 [Allopurinol] (10000 nM)"
measurement_target = "CAL-85-1"
measured_number = 83.4

[[record]]
compound = "CC(C)(C)c1cnc(CSc2cnc(NC(=O)C3CCNCC3)s2)o1 [SNS-032] (10000 nM)"
measurement_target = "CAL-85-1"
measured_number = 42.8

